Source of measurements: patent US4396550A

Tested on: male dd-strain rats
assayProcedure: Acute toxicity test (minimum lethal dose)
Type: in vivo
conditionLabel: ip; mortality for 7 days
Listing of recorded Acute toxicity: MLD (minimum lethal dose) by entry.
readoutKind: Acute toxicity: MLD (minimum lethal dose) (mg/kg)

>>> observedvalue("CCN(CC)CCCNC1c2ccccc2COc2ccc(C)cc21 (stereo not drawn) [Compound 4]")
100
>>> observedvalue("CCC(C)(C)c1ccc2c(c1)C(NC1CN3CCC1CC3)c1ccccc1CO2 (stereo not drawn) [Compound 53]")
50
>>> observedvalue("c1ccc2c(c1)COc1ccc(C3CCCCC3)cc1C2NC1CN2CCC1CC2 (stereo not drawn) [Compound 54]")
100
>>> observedvalue("CCc1ccc2c(c1)C(NCCCN(CC)CC)c1ccccc1CO2 (stereo not drawn) [Compound 2]")
100
>>> observedvalue("CC(C)(C)c1ccc2c(c1)C(NC1CN3CCC1CC3)c1ccccc1CO2 (stereo not drawn) [Compound 52]")
100

* * *

Listing of recorded Acute toxicity: MLD (minimum lethal dose) by entry.
Tested on: male dd-strain rats
assayProcedure: Acute toxicity test (minimum lethal dose)
Type: in vivo
conditionLabel: ip; mortality for 7 days
readoutKind: Acute toxicity: MLD (minimum lethal dose) (mg/kg)

>>> observedvalue("Fc1ccc2c(c1)C(NC1CN3CCC1CC3)c1ccccc1CO2 (stereo not shown)")
100
>>> observedvalue("Cc1ccc2c(c1)C(NC1CN3CCC1CC3)c1ccccc1CO2 (stereo not shown)")
50
>>> observedvalue("CCN(CC)CCNC1c2ccccc2COc2ccc(F)cc21 (stereo not shown)")
100
>>> observedvalue("CCN(CC)CCNC1c2ccccc2COc2c(C)cccc21 (stereo not shown)")
100

* * *

Tested on: male dd-strain rats
assayProcedure: Acute toxicity test (minimum lethal dose)
Assay type: in vivo
conditionLabel: po; mortality for 7 days
readoutKind: Acute toxicity: MLD (minimum lethal dose)

>>> observedvalue("CCN(CCN(C)C)C1c2ccccc2COc2ccc(C)cc21 (stereo not shown) [Compound 64]")
"> 300 mg/kg"
>>> observedvalue("CCc1ccc2c(c1)C(N1CCN(CCO)CC1)c1ccccc1CO2 (stereo not shown) [Compound 38]")
"> 300 mg/kg"
>>> observedvalue("Cc1ccc2c(c1)C(NCCN1CCNCC1)c1ccccc1CO2 (stereo not shown) [Compound 25]")
"> 300 mg/kg"
>>> observedvalue("CCN(CC)CCNC1c2ccccc2COc2ccc(Cl)cc21 (stereo not shown) [Compound 10]")
"> 300 mg/kg"
>>> observedvalue("CCc1ccc2c(c1)C(N1CCN(CCN)CC1)c1ccccc1CO2 (stereo not shown) [Compound 45]")
"> 300 mg/kg"
>>> observedvalue("Cc1ccc2c(c1)C(NCCN1CCCC1)c1ccccc1CO2 (stereo not shown) [Compound 58]")
"300 mg/kg"
>>> observedvalue("CCC(C)c1ccc2c(c1)C(NCCN(CC)CC)c1ccccc1CO2 (stereo not shown) [Compound 11]")
"> 300 mg/kg"
>>> observedvalue("Fc1ccc(C(NC2c3ccccc3COc3ccc(F)cc32)c2ccc(F)cc2)cc1 (stereo not shown) [Compound 31]")
"> 300 mg/kg"
>>> observedvalue("CN1CCN(C2c3ccccc3COc3ccc(F)cc32)CC1 (stereo not shown) [Compound 69]")
"100 mg/kg"
>>> observedvalue("CN(C)CCCNC1c2ccccc2COc2ccc(Cl)cc21 (stereo not shown) [Compound 50]")
"200 mg/kg"

* * *

Tested on: male dd-strain rats
assayProcedure: Acute toxicity test (minimum lethal dose)
Format: in vivo
conditionLabel: po; mortality for 7 days
Listing of recorded Acute toxicity: MLD (minimum lethal dose) by entry.
readoutKind: Acute toxicity: MLD (minimum lethal dose) (mg/kg)

>>> observedvalue("Cc1ccc2c(c1)C(NCCN1CCOCC1)c1ccccc1CO2 (centres unmarked)")
200
>>> observedvalue("CCc1ccc2c(c1)C(NCCCN(CC)CC)c1ccccc1CO2 (centres unmarked)")
300
>>> observedvalue("CCN(CC)CCCNC1c2ccccc2COc2ccc(Cl)cc21 (centres unmarked)")
300
>>> observedvalue("CCN(CC)CCCNC1c2ccccc2COc2ccc(C)cc21 (centres unmarked)")
300
>>> observedvalue("CCc1ccc2c(c1)C(NC1CN3CCC1CC3)c1ccccc1CO2 (centres unmarked)")
300
>>> observedvalue("CCN(CC)CCCNC1c2ccccc2COc2c(C)cccc21 (centres unmarked)")
300
>>> observedvalue("Fc1ccc2c(c1)C(NC1CN3CCC1CC3)c1ccccc1CO2 (centres unmarked)")
300
>>> observedvalue("Cc1ccc2c(c1)C(NCCc1ccccn1)c1ccccc1CO2 (centres unmarked)")
200

* * *

Test system: blood platelets (platelet-rich plasma)
assayProcedure: Test for the inhibition of platelet aggregation (collagen-induced, platelet-rich plasma)
Format: cell-based, male white rabbits
conditionLabel: Oryctolagus cuniculus, Platelet, 0.05 h; depressing ratio of 50% of collagen-induced aggregation; compound 3 minutes before; read-out: Antiplatelet aggregation activity: MED
Listing of recorded minimal effective concentration by entry.
readoutKind: minimal effective concentration (µg/mL)

>>> observedvalue("CCC(C)c1ccc2c(c1)C(NCCN(CC)CC)c1ccccc1CO2 (stereo not shown) [Compound 11]")
10
>>> observedvalue("CCc1ccc2c(c1)C(NCCN1CCNCC1)c1ccccc1CO2 (stereo not shown) [Compound 26]")
5
>>> observedvalue("Cc1ccc2c(c1)C(NCCc1ccccn1)c1ccccc1CO2 (stereo not shown) [Compound 36]")
100
>>> observedvalue("CCN(CC)CCCNC1c2ccccc2COc2ccc(Cl)cc21 (stereo not shown) [Compound 5]")
20
>>> observedvalue("Cc1ccc2c(c1)C(NN1CCN(C)CC1)c1ccccc1CO2 (stereo not shown) [Compound 29]")
50
>>> observedvalue("CN1CCN(C2c3ccccc3COc3c(-c4ccccc4)cccc32)CC1 (stereo not shown) [Compound 47]")
10
>>> observedvalue("CCN(CC)CCNC1c2ccccc2COc2ccc(OC)cc21 (stereo not shown) [Compound 13]")
20
>>> observedvalue("CCN(CC)CCNC1c2ccccc2COc2c(C)cccc21 (stereo not shown) [Compound 12]")
10
>>> observedvalue("CCc1ccc2c(c1)C(NC1CN3CCC1CC3)c1ccccc1CO2 (stereo not shown) [Compound 21]")
50
>>> observedvalue("CCc1ccc2c(c1)C(NCCN(CC)CC)c1ccccc1CO2 (stereo not shown) [Compound 1]")
20

* * *

Listing of recorded minimal effective concentration by entry.
Tested on: blood platelets (platelet-rich plasma)
assayProcedure: Test for the inhibition of platelet aggregation (collagen-induced, platelet-rich plasma)
Format: cell-based, male white rabbits
conditionLabel: Oryctolagus cuniculus, Platelet, 0.05 h; depressing ratio of 50% of collagen-induced aggregation; compound 3 minutes before; read-out: Antiplatelet aggregation activity: MED
readoutKind: minimal effective concentration (µg/mL)

>>> observedvalue("c1ccc(-c2ccc3c(c2)C(NC2CN4CCC2CC4)c2ccccc2CO3)cc1 (centres unmarked) [Compound 55]")
20
>>> observedvalue("CCc1ccc2c(c1)C(NCCN1CCCCC1)c1ccccc1CO2 (centres unmarked) [Compound 35]")
20
>>> observedvalue("Cc1ccc2c(c1)C(NCCCN(C)C)c1ccccc1CO2 (centres unmarked) [Compound 14]")
20
>>> observedvalue("CCc1ccc2c(c1)C(N1CCN(C)CC1)c1ccccc1CO2 (centres unmarked) [Compound 66]")
50
>>> observedvalue("Cc1ccc2c(c1)C(Nc1ccc3[nH]ccc3c1)c1ccccc1CO2 (centres unmarked) [Compound 62]")
50

* * *

System: blood platelets (platelet-rich plasma)
assayProcedure: Test for the inhibition of platelet aggregation (collagen-induced, platelet-rich plasma)
Type: cell-based, male white rabbits
conditionLabel: Oryctolagus cuniculus, Platelet, 0.05 h; depressing ratio of 50% of collagen-induced aggregation; compound 3 minutes before; read-out: Antiplatelet aggregation activity: MED
Listing of recorded minimal effective concentration by entry.
readoutKind: minimal effective concentration (µg/mL)

>>> observedvalue("CCc1ccc2c(c1)C(N1CCN(CCN)CC1)c1ccccc1CO2 (centres unmarked) [Compound 45]")
100
>>> observedvalue("CCN(CC)CCCNC1c2ccccc2COc2ccc(F)cc21 (centres unmarked) [Compound 3]")
20
>>> observedvalue("Cc1ccc2c(c1)C(NCCN(C)C)c1ccccc1CO2 (centres unmarked) [Compound 16]")
50
>>> observedvalue("COc1ccc2c(c1)C(N1CCN(C)CC1)c1ccccc1CO2 (centres unmarked) [Compound 68]")
100
>>> observedvalue("Cc1ccc2c(c1)C(NCCN1CCCC1)c1ccccc1CO2 (centres unmarked) [Compound 58]")
50
>>> observedvalue("CN(C)CCNC1c2ccccc2COc2ccc(F)cc21 (centres unmarked) [Compound 18]")
50
>>> observedvalue("CCC(C)c1ccc2c(c1)C(NC1CN3CCC1CC3)c1ccccc1CO2 (centres unmarked) [Compound 51]")
50
>>> observedvalue("Cc1ccc2c(c1)C(N1CCN(CCO)CC1)c1ccccc1CO2 (centres unmarked) [Compound 37]")
50
>>> observedvalue("c1ccc(-c2cccc3c2OCc2ccccc2C3NC2CN3CCC2CC3)cc1 (centres unmarked) [Compound 57]")
10
>>> observedvalue("Fc1ccc2c(c1)C(NC1CN3CCC1CC3)c1ccccc1CO2 (centres unmarked) [Compound 22]")
100
>>> observedvalue("Cc1ccc2c(c1)C(NCCN1CCOCC1)c1ccccc1CO2 (centres unmarked) [Compound 59]")
100
>>> observedvalue("NCCN1CCN(C2c3ccccc3COc3ccc(F)cc32)CC1 (centres unmarked) [Compound 46]")
50
>>> observedvalue("CCc1ccc2c(c1)C(N1CCN(CCO)CC1)c1ccccc1CO2 (centres unmarked) [Compound 38]")
100
>>> observedvalue("CCN(CC)CCNC1c2ccccc2COc2ccc(C3CCCCC3)cc21 (centres unmarked) [Compound 48]")
100
>>> observedvalue("CCc1ccc2c(c1)C(NCCN(C)C)c1ccccc1CO2 (centres unmarked) [Compound 17]")
50
>>> observedvalue("Cc1cccc2c1OCc1ccccc1C2N1CCN(CCO)CC1 (centres unmarked) [Compound 41]")
100
>>> observedvalue("CN1CCN(C2c3ccccc3COc3ccc(Cl)cc32)CC1 (centres unmarked) [Compound 70]")
50
>>> observedvalue("CN(C)CCCNC1c2ccccc2COc2ccc(F)cc21 (centres unmarked) [Compound 49]")
50
>>> observedvalue("CCc1ccc2c(c1)C(NCCCN(C)C)c1ccccc1CO2 (centres unmarked) [Compound 15]")
20
>>> observedvalue("Cc1ccc2c(c1)C(NCCN1CCNCC1)c1ccccc1CO2 (centres unmarked) [Compound 25]")
20
